# protocolSummary: chemical genetic growth profiling, strain panel (AID 1159580);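 further: tested at 20 µM; growth read once vehicle control cultures reached saturation at 30 °C; lower values mean less growth of the strain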
# conditionSet: S. cerevisiae deletion strains, growth OD, locus YLR039C, strain RIC1
Out of some 5,500 compounds screened, about 2,000 (36%) were called active. About 18% were inconclusive and are not listed. No stated cut-off is given here; in the data, active means normalized growth mostly below about 0.91 (no sharp cut-off); inconclusive means no clear call, values can overlap the other calls; inactive means mostly above about 0.92. Some of the results follow.
Hi! Could you answer with just one of these? T for active, F for inactive

[[record]]
compound = "COc1ccc(-c2coc3cc(OC)ccc3c2=O)cc1"
assignedlabel = "T"

[[record]]
compound = "COC(=O)CCCCCCCC(=O)Nc1ccc(Cl)cc1"
assignedlabel = "F"

[[record]]
compound = "CC1CCc2cc(F)cc3c(=O)c(C(=O)O)cn1c23 (configuration not stated)"
assignedlabel = "F"

[[record]]
compound = "Clc1ccc(C(c2ccc(Cl)cc2)C(Cl)(Cl)Cl)cc1"
assignedlabel = "F"

[[record]]
compound = "CCCCCCCCC(=O)NCc1ccc(O)c(OC)c1"
assignedlabel = "F"

[[record]]
compound = "COc1ccc([C@H]2Oc3c(I)c(OC)cc(OC)c3C[C@@H]2O)cc1OC"
assignedlabel = "F"

[[record]]
compound = "CNCCC(Oc1ccc(C(F)(F)F)cc1)c1ccccc1 (configuration not stated)"
assignedlabel = "T"

[[record]]
compound = "C=C[C@@](C)(O)CCC1C(=C)C[C@H](OC(C)=O)C2C(C)(C)CCCC12C (some centres not stated)"
assignedlabel = "F"

[[record]]
compound = "O=C(c1c(F)cccc1F)N1CCN(C(=O)c2c(F)cccc2F)CC1"
assignedlabel = "F"

[[record]]
compound = "CCN(CC)C(=O)N1CCN(C)CC1"
assignedlabel = "F"


Enquiry: Returns: the outcome recorded for C[C@@H]1CC(Cl)CC[C@H]1C(=O)OC(C)(C)C (some centres not stated) in this assay.
Return: F

Enquiry: Returns: the outcome recorded for Cn1c2c(c(=O)n(C)c1=O)CN(CCCCCCO)CN2 in this assay.
Return: F

Enquiry: Returns: the outcome recorded for O=c1cccc2ccc(O)c(O)c2c1O in this assay.
Return: T

Enquiry: Returns: the outcome recorded for CCC1(O)CC(OC2CC(N(C)C)C(OC3CC(O)C(OC4CCC(=O)C(C)O4)C(C)O3)C(C)O2)c2c(cc3c(c2O)C(=O)c2c(O)cccc2C3=O)C1C(=O)OC (configuration not stated) in this assay.
Return: F

Enquiry: Returns: the outcome recorded for COc1ccc(-c2coc3cc(O)ccc3c2=O)cc1 in this assay.
Return: F
